src = paper PMC10734772

# Tested on: K562
# EXPERIMENT_DESCRIPTION: MTT assay, K562 cells
# Format: cell-based
# CONDITION_NOTES: Homo sapiens; K562, 1 μM, 24 h, MTT; read-out: Viability rate
For each record, write down the corresponding viability at 1 µM.
Report the figure in % without appending any unit label.

Give recorded viability at 1 µM with K562 for the following compound: Cc1ccnc(Nc2cc(NC(=O)c3ccc(CN4CCN(c5ncccn5)CC4)cc3)ccc2C)n1 103

Form: Entry = COc1ccc(CN2CCN(Cc3ccc(C(=O)Nc4ccc(C)c(Nc5cc(C)ccn5)c4)cc3)CC2)c(OC)c1OC | System = K562 | viability at 1 µM = ____ 98.9

GET /values?readout=viability at 1 µM&system=K562&item= COc1ccc(CN2CCN(Cc3ccc(C(=O)Nc4ccc(C)c(Nc5nccc(C)n5)c4)cc3)CC2)c(OC)c1OC 91.8

Please state recorded viability at 1 µM (tested on K562) of Cc1ccnc(Nc2cc(NC(=O)c3ccc(CN4CCOCC4)cc3)ccc2C)c1 77.3

// fetch K562 viability at 1 µM for Cc1ccc(NC(=O)c2ccc(CN3CCN(c4ncccn4)CC3)cc2)cc1Nc1cnccn1 84.4

Return viability at 1 µM measured with K562 given this compound: Cc1ccnc(Nc2cc(NC(=O)c3ccc(CN4CCOCC4)cc3)ccc2C)n1 84.7

Quick check: viability at 1 µM on K562, item Cc1ccc(NC(=O)c2ccc(CN3CCN(C)CC3)cc2)cc1Nc1nccc(-c2cccnc2)n1 [imatinib, reference compound] ? 95.4

----------
# Tested on: Nalm-6
# EXPERIMENT_DESCRIPTION: MTT assay, Nalm-6 cells
# Type: cell-based
# CONDITION_NOTES: Homo sapiens; Nalm-6, 0.3 μM, 24 h, MTT; read-out: Viability rate
viability at 0.3 µM less than 90% is Condition met; viability at 0.3 µM greater than or equal to 90% is Condition not met.

Quick check: does Cc1ccnc(Nc2cc(NC(=O)c3ccc(CN4CCOCC4)cc3)ccc2C)n1 have viability at 0.3 µM under 90%? Condition not met

Could you please tell me whether viability at 0.3 µM recorded for COc1ccc(CN2CCN(Cc3ccc(C(=O)Nc4ccc(C)c(Nc5nccc(C)n5)c4)cc3)CC2)c(OC)c1OC is less than 90%? Condition not met

Hello, I'm reviewing records and need to know if viability at 0.3 µM of Cc1ccnc(Nc2cc(NC(=O)c3ccc(CN4CCOCC4)cc3)ccc2C)c1 is below 90%. Could you check? Condition met

Please check: viability at 0.3 µM for Cc1ccc(NC(=O)c2ccc(CN3CCN(c4ncccn4)CC3)cc2)cc1Nc1cnccn1 , strictly under 90% or not? Condition not met

Is viability at 0.3 µM strictly under 90% for the entry COc1ccc(CN2CCN(Cc3ccc(C(=O)Nc4ccc(C)c(Nc5cc(C)ccn5)c4)cc3)CC2)c(OC)c1OC ? Condition not met

----------
# EXPERIMENT_DESCRIPTION: MTT assay, Hek293T non-leukemic control cells
# Type: cell-based
# CONDITION_NOTES: human, Hek293T cells (non-leukemic control cell line), 3 μM, read-out: Viability rate
QUANTITY_KIND: viability at 24 h, 3 µM (%)
Kindly provide the numeric value in % only, without the unit symbol.

Using the record for Cc1ccc(NC(=O)c2ccc(CN3CCN(C)CC3)cc2)cc1Nc1nccc(-c2cccnc2)n1 [imatinib, reference compound] , report its viability at 24 h, 3 µM. 73.1

For the molecule Cc1ccnc(Nc2cc(NC(=O)c3ccc(CN4CCN(c5ncccn5)CC4)cc3)ccc2C)n1 , what viability at 24 h, 3 µM is on record? 66.5

Any idea what its viability at 24 h, 3 µM is? The molecule is COc1ccc(CN2CCN(Cc3ccc(C(=O)Nc4ccc(C)c(Nc5nccc(C)n5)c4)cc3)CC2)c(OC)c1OC 81.4
